Numbers sourced from paper PMC10668032.

Would you mind telling me the reported binding signal of each entry?
Molecular target: SIX1 homeodomain (reference allele) (human, UniProt Q15475 108-198)
Sequence: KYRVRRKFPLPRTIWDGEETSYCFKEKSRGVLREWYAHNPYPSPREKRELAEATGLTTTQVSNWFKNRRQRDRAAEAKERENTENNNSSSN
Test: universal protein binding microarray; Universal all-10-mer PBM (8x60K, AMADID 030236), 300 nM GST-tagged protein, Alexa Fluor 488 anti-GST; buffer, salt, pH and temperature not stated (as in Berger); high values mean tight binding
Conditions: protein: ivt; tags: N-terminal GST; dsDNA, one strand shown
Over roughly 33,000 sequences, “e-score” has its median near -0.053; the highest 2% begin near 0.38. This is one part of a sample in which the highest values are shown more often than they occur.
All answers are understood in E-score, so give the number only.

*Q* // fetch binding signal given entry ACAATATG
*A* 0.239

*Q* Tell me its binding signal given AAACCCGG as the entry.
*A* 0.163

*Q* Retrieve binding signal measured for GATACTTA and print it.
*A* 0.401

*Q* Using known records, supply binding signal for AGGTTTAT
*A* 0.199

*Q* Fill in reported binding signal for this entry: CCGGATAG
*A* 0.361

*Q* Indicate the recorded binding signal value for this sequence: AGACCCGG
*A* 0.214

*Q* Report measured binding signal; entry is AATACTTG
*A* 0.151

*Q* Look up binding signal of TATACCCA and report it.
*A* 0.401

*Q* Output measured binding signal for this item: TGGATCAA
*A* 0.306

*Q* Supply binding signal value. Item: CGGATCGA
*A* 0.34

*Q* Find the measured binding signal of AGGATCGA and report it.
*A* 0.289

*Q* Supply binding signal value. Item: ATACCAGC
*A* 0.304

*Q* Note binding signal for the sequence shown: GATACCCA
*A* 0.476

*Q* Using the record for CCGATCAG , state its measured binding signal.
*A* 0.24

*Q* Supply recorded binding signal for CTGGATTA here.
*A* 0.177

*Q* Name the recorded binding signal of the item CTGATCAC in your answer.
*A* 0.204

*Q* Give me measured binding signal, please, for this sequence: ACGGATAA
*A* 0.216

*Q* For ATACACGC , write its binding signal.
*A* 0.328

*Q* Supply binding signal value. Item: ACGGATAT
*A* 0.428

*Q* Annotate the sequence CGGATCAG with its measured binding signal.
*A* 0.443

*Q* Quote binding signal reported for GACACTGA please.
*A* 0.161

*Q* Indicate its recorded binding signal; the sequence in question is TCTACCCA
*A* 0.221

*Q* # return recorded binding signal for input GATAGCGA
*A* 0.251

*Q* Specify binding signal for ATACCCGC and stop.
*A* 0.379

*Q* Report binding signal, nothing else, for this sequence: CTGATCAG
*A* 0.313

*Q* Supply measured binding signal of AGACCCGA in your reply.
*A* 0.196

*Q* Quote binding signal reported for ATACCAGG please.
*A* 0.377

*Q* Recall and state the measured binding signal for AGGATCAA .
*A* 0.352

*Q* Give reported binding signal value for ACACCCGC
*A* 0.27

*Q* Identify the reported binding signal for the following entry. ATACCCGG
*A* 0.407

*Q* State, in one line, measured binding signal of CTCGTATA
*A* 0.161

*Q* # return recorded binding signal for input ACGGATAG
*A* 0.344

*Q* Recall and state the measured binding signal for CCTATAGA .
*A* 0.157

*Q* Determine from records and report binding signal for ACGGATAC
*A* 0.454

*Q* Tell me its binding signal given ACGGATTG as the entry.
*A* 0.179

*Q* Report measured binding signal; entry is CCGCGGTA
*A* 0.194

*Q* Output binding signal of AGACGGGA
*A* 0.2

*Q* Quickly give me recorded binding signal for CCGATCAC
*A* 0.346

*Q* Please list binding signal recorded for the sequence ATCATTTC
*A* 0.196

*Q* Check the records and state binding signal for ATGGATAC
*A* 0.447

*Q* Identify the reported binding signal for the following entry. AGAGTGAG
*A* 0.172

*Q* Identify measured binding signal corresponding to GCTATATA
*A* 0.253

*Q* For the sequence CGGATCAA , give its measured binding signal value.
*A* 0.417

*Q* Supply reported binding signal belonging to this sequence: GAGATAGA
*A* 0.183

*Q* Complete the entry with binding signal for CTGGATAC
*A* 0.387

*Q* Tell me its binding signal given CCGGATAC as the entry.
*A* 0.441
